Readings of log10 of EC50 for the listed substances
Molecular target: hGIPR (Homo sapiens)
Assay: Functional cAMP activity in the presence of 1% HSA
Type: cell-based
Details: read-out: cAMP Rel EC50, hGIPR
Starred links: 1 amine or outer side, 2 acyl side, 3 side chain; linkers in the order of their positions; H or OH if unused. Non-standard residues stand in square brackets, D forms with d. Groups on a side chain read outwards from the residue. *: point of attachment. C18 diacid = O=C(O)CCCCCCCCCCCCCCCCC(=O)*; αMePhe(2-F) = C[C@](N)(Cc1ccccc1F)C(=O)O; γGlu = O=C(O)[C@H](CCC(=O)[*:2])N[*:1]; αMe4Pal = C[C@](N)(Cc1ccncc1)C(=O)O; αMeY = C[C@](N)(Cc1ccc(O)cc1)C(=O)O; 4Pal = N[C@@H](Cc1ccncc1)C(=O)O; αMeL = CC(C)C[C@](C)(N)C(=O)O; αMeS = C[C@](N)(CO)C(=O)O; Orn = NCCC[C@H](N)C(=O)O; AEEA = NCCOCCOCC(=O)O; Aib = CC(C)(N)C(=O)O
// do not treat as linear: log10 of EC50, unit nM

substance: H-Y[Aib]QGTFTSD[4Pal]S[Orn][αMeL]LDKK([γGlu-γGlu-γGlu-C18 diacid])AQ[αMe4Pal]AFIEYLIE[Aib]GPSSGAPPPSGS-NH2 [Example 866]
log10 of EC50: 1.38

substance: H-Y[Aib]QGT[αMePhe(2-F)]TSD[4Pal][αMeS]I[αMeL]LD[Orn]K([γGlu-γGlu-C18 diacid])AQ[Aib]NFI[dE][αMeY]LIEGGPSSGEPEPEEG-NH2 [Example 474]
log10 of EC50: -0.13

substance: H-Y[Aib]QGT[αMePhe(2-F)]TSD[4Pal]SI[αMeL]LD[Orn]K([AEEA-γGlu-C18 diacid])AQ[αMe4Pal][Orn]FI[dE][αMeY]LIEGGPSSGEPPPETE-NH2 [Example 678]
log10 of EC50: -0.03

substance: H-Y[Aib]Q[dA]T[αMePhe(2-F)]TSD[4Pal][αMeS]I[αMeL]LD[Orn]K([AEEA-γGlu-C18 diacid])AQ[Aib]EFI[dE][αMeY]LIEGGPSSGAPPPSGGGE-NH2 [Example 1223]
log10 of EC50: 0.97

**Query** I am curious: what log10 of EC50 value has been reported for H-Y[Aib]QGT[αMePhe(2-F)]TSD[4Pal][αMeS]I[αMeL]LD[Orn]K([AEEA-γGlu-C18 diacid])AQ[αMe4Pal]EFI[dE][αMeY]LIEGGPSSGAPPPSGSEE-NH2 [Example 713] ?
**Result** -0.06

----------
EC50 values by entry
Molecular target: hGIPR (Homo sapiens, UniProt P48546)
Sequence (P48546 22-466): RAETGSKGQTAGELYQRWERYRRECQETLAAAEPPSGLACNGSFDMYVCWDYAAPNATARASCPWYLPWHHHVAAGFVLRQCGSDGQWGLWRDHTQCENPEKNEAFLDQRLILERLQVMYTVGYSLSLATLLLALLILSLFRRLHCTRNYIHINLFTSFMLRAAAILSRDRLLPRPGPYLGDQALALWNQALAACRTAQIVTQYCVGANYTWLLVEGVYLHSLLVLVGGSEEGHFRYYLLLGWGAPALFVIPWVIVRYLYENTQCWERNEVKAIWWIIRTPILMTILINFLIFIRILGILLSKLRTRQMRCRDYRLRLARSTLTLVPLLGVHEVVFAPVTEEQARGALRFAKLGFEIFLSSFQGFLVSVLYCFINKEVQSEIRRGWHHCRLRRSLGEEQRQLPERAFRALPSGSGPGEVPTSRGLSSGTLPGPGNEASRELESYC
Test: Functional cAMP activation in the presence of 0.1% casein (no HSA);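 note: intracellular cAMP rise after 30 min at 37 °C read by HTRF against a standard curve, scaled between buffer alone (0%) and top control ligand concentration (100%), four-parameter fit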
Format: cell-based
Settings: 0.1% casein, no HSA; geometric mean; read-out: Relative cAMP EC50, hGIPR
Starred links: 1 amine or outer side, 2 acyl side, 3 side chain; linkers in the order of their positions; H or OH if unused. Non-standard residues stand in square brackets, D forms with d. Groups on a side chain read outwards from the residue. No end group written: not given here. *: point of attachment. C18 diacid = O=C(O)CCCCCCCCCCCCCCCCC(=O)*; αMePhe(2-F) = C[C@](N)(Cc1ccccc1F)C(=O)O; γGlu = O=C(O)[C@H](CCC(=O)[*:2])N[*:1]; αMe4Pal = C[C@](N)(Cc1ccncc1)C(=O)O; αMeY = C[C@](N)(Cc1ccc(O)cc1)C(=O)O; 4Pal = N[C@@H](Cc1ccncc1)C(=O)O; αMeL = CC(C)C[C@](C)(N)C(=O)O; αMeS = C[C@](N)(CO)C(=O)O; Orn = NCCC[C@H](N)C(=O)O; AEEA = NCCOCCOCC(=O)O; Aib = CC(C)(N)C(=O)O
// units = nM; emit number, no label

// worked examples, EC50 included
substance: H-Y[Aib]QGT[αMePhe(2-F)]TSD[4Pal][αMeS]I[αMeL]LD[Orn]K([AEEA-γGlu-C18 diacid])AQ[αMe4Pal]EFI[dE][αMeY]LIEGGPPS[Aib][Orn]PPPEGE-NH2 [Example 1194]
experimental_system: hGIPR (Homo sapiens, UniProt P48546)
EC50, nM: 0.00725

substance: Y[Aib]QGT[αMePhe(2-F)]TSD[4Pal][αMeS]I[αMeL]LD[Orn]K([AEEA-γGlu-C18 diacid])AQ[αMe4Pal]EFI[dQ][αMeY]LIEGGPSSGAPPPSGS-NH2 [Example 1202]
experimental_system: hGIPR (Homo sapiens, UniProt P48546)
EC50, nM: 0.00635

**Query** # query: EC50 | item Y[Aib]Q[dA]T[αMePhe(2-F)]TSD[4Pal][αMeS]I[αMeL]LD[Orn]K([AEEA-γGlu-C18 diacid])AQ[Aib]EFI[dE][αMeY]LIEGGPSSGAPPPSGS-NH2 [Example 1203] | system: hGIPR (Homo sapiens, UniProt P48546)
**Result** 0.0774

**Query** Identify the measured EC50 of H-Y[Aib]QGT[αMePhe(2-F)]TSD[4Pal][αMeS]I[αMeL]LD[Orn]K([AEEA-γGlu-C18 diacid])AQ[αMe4Pal]EFI[dE][αMeY]LIEGGPPSGEPPPEGE-NH2 [Example 1191] for hGIPR (Homo sapiens, UniProt P48546).
**Result** 0.00992

**Query** Lab request: please report EC50 under test system hGIPR (Homo sapiens, UniProt P48546) for H-Y[Aib]Q[dA]T[αMePhe(2-F)]TSD[4Pal][αMeS]I[αMeL]LD[Orn]K([AEEA-γGlu-C18 diacid])AQ[Aib]EFI[dE][αMeY]LVEGGPSSGAPPPSGS-NH2 [Example 1204]
**Result** 0.21

**Query** What is its EC50 for hGIPR (Homo sapiens, UniProt P48546)? Entry: H-Y[Aib]QGT[αMePhe(2-F)]TSD[4Pal][αMeS]I[αMeL]LD[Orn]K([γGlu-γGlu-C18 diacid])AQ[αMe4Pal]EFI[dE][αMeY]LIEGGPSSGAPPPSGGGEEE-NH2 [Example 1219]
**Result** 0.0101

**Query** Could you share what EC50 was measured for H-Y[Aib]Q[dA]T[αMePhe(2-F)]TSD[4Pal][αMeS]I[αMeL]LD[Orn]K([γGlu-γGlu-C18 diacid])AQ[Aib]EFI[dE][αMeY]LIEGGPSSGAPPPSGSE-NH2 [Example 1224] , tested on hGIPR (Homo sapiens, UniProt P48546)?
**Result** 0.048

**Query** # value lookup — system hGIPR (Homo sapiens, UniProt P48546), readout EC50, item H-Y[Aib]Q[dA]T[αMePhe(2-F)]TSD[4Pal]SI[αMeL]LD[Orn]K([AEEA-γGlu-C18 diacid])AQ[αMe4Pal]EFI[dE][αMeY]LVEGGPSSGAPPPSGS-NH2 [Example 1205]
**Result** 0.152

**Query** API: value(readout= EC50, system= hGIPR (Homo sapiens, UniProt P48546), query= H-Y[Aib]QGT[αMePhe(2-F)]TSD[4Pal][αMeS]I[αMeL]LD[Orn]QAQ[αMe4Pal]EFI[dE][αMeY]LIEGGPSSGAPPPSGSE-NH2 [Example 1233] )
**Result** 0.012

**Query** // map H-Y[Aib]QGT[αMePhe(2-F)]TSD[4Pal][αMeS]I[αMeL]LD[Orn]K([AEEA-AEEA-γGlu-C18 diacid])AQ[αMe4Pal]EFI[dE][αMeY]LIEGGPSSGEPPPSGS-NH2 [Example 1208] to recorded EC50 (system: hGIPR (Homo sapiens, UniProt P48546))
**Result** 0.00907

**Query** Query for hGIPR (Homo sapiens, UniProt P48546): what EC50 does the record show for Y[Aib]QGT[αMePhe(2-F)]TSD[4Pal][αMeS]I[αMeL]LD[Orn]K([AEEA-γGlu-C18 diacid])AQ[αMe4Pal]EFI[dE][αMeY]LIEGGPPS[Aib][Orn]PPP[Orn]SE-NH2 [Example 1196] ?
**Result** 0.00756

**Query** Notebook entry, hGIPR (Homo sapiens, UniProt P48546) assay: EC50 of H-Y[Aib]QGT[αMePhe(2-F)]TSD[4Pal][αMeS]I[αMeL]LD[Orn]K([γGlu-γGlu-C18 diacid])AQ[αMe4Pal]EFI[dE][αMeY]LIEGGPPS[Aib][Orn]PPP[Orn]GE-NH2 [Example 1227] = ?
**Result** 0.00621

Origin of values: patent US20240270821A1
